src = ChEMBL document CHEMBL1909046

- assay-system: Sodium-dependent dopamine transporter (Homo sapiens, UniProt Q01959)
- Sequence (Q01959 whole entry): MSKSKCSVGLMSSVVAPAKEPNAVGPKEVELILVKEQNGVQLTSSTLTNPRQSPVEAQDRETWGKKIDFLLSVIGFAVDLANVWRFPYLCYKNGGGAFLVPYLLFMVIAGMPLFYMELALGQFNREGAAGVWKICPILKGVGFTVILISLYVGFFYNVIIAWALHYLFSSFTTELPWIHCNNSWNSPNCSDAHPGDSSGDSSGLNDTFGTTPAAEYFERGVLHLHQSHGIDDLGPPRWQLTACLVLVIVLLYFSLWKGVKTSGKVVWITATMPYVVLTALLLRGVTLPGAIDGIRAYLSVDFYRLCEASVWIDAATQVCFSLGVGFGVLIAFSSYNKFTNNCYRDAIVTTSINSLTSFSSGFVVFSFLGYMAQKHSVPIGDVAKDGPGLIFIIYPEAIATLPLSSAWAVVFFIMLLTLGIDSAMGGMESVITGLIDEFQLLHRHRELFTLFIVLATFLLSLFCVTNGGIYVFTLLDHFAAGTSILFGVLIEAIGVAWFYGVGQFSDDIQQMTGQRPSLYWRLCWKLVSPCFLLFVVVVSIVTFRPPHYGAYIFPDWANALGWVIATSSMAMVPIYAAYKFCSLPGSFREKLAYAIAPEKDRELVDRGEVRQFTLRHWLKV
- assay-procedure: DRUGMATRIX: Dopamine Transporter radioligand binding (ligand: [125I] RTI-55)
- Type: cell membranes, CHO-K1, Membrane
- settings: Not Active = under 50% inhibition at 10 µM; read-out: IC50
Measured pIC50, listed per entry.
// scale note: pIC50 = -log10(conc_M); give the bare number

Guide cases for pIC50, answers given:
>>> recorded_result("CN(C)CC[C@@H](c1ccc(Cl)cc1)c1ccccn1")
6.03
>>> recorded_result("COC(=O)Nc1nc2ccc(C(=O)c3cccs3)cc2[nH]1")
5.21
>>> recorded_result("Cc1c(C)c2c(c(C)c1O)CCC(C)(CN1CCN(c3cc(N4CCCC4)nc(N4CCCC4)n3)CC1)O2 (stereo not given)")
4.87
>>> recorded_result("Fc1ccc(C(c2ccc(F)cc2)N2CCN(C/C=C/c3ccccc3)CC2)cc1")
6.23

Let's switch to this compound now.
*Q* Identify pIC50 associated with the compound CC(=O)[C@@]1(O)CC[C@H]2[C@@H]3CCC4=CC(=O)CC[C@]4(C)[C@H]3CC[C@@]21C [HYDROXYPROGESTERONE]
*A* 5.16

* * *

- assay-system: Protein phosphatase 3 catalytic subunit alpha (Homo sapiens, UniProt Q08209); also: in other assays of this panel Not Active means under 50% inhibition at 10 µM;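 also: inhibition of calcineurin (PP2B) enzyme activity, measured with DiFMUP as the substrate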
- Set-up: species or system Escherichia coli
measured-metric: IC50

>>> recorded_result("C[C@H]1C[C@@H]2[C@H]([C@@H](O)C[C@@]3(C)[C@H]2CC[C@]3(O)C(=O)CO)[C@@]2(C)C=CC(=O)C=C12")
"Not Active"
>>> recorded_result("COc1cc([C@@H]2c3cc4c(cc3[C@@H](O[C@@H]3O[C@@H]5CO[C@@H](C)O[C@H]5[C@H](O)[C@H]3O)[C@H]3COC(=O)[C@H]23)OCO4)cc(OC)c1O [ETOPOSIDE]")
"Not Active"
>>> recorded_result("COc1ccc2c3c1O[C@H]1C[C@@H](O)C=C[C@@]31CCN(C)C2")
"Not Active"

* * *

- assay-system: Mitogen-activated protein kinase 1 (Homo sapiens, UniProt P28482)
- Sequence (P28482 whole entry): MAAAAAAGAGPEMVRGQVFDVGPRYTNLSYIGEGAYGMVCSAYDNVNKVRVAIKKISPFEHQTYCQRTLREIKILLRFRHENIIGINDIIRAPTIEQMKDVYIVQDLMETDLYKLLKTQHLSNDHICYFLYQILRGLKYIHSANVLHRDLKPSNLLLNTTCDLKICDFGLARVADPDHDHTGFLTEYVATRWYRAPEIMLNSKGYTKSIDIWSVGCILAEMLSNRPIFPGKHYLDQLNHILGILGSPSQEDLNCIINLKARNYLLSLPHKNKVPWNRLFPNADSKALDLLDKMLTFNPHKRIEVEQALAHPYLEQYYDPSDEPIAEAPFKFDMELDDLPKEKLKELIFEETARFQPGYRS
- assay-procedure: DRUGMATRIX: Protein Serine/Threonine Kinase, ERK2 enzyme inhibition (substrate: Myelin Basic Protein)
- Set-up: species or system Escherichia coli
- settings: Not Active = under 50% inhibition at 10 µM
measured-metric: IC50

>>> recorded_result("Cc1nnc2n1-c1ccc(Cl)cc1C(c1ccccc1)=NC2 [ALPRAZOLAM]")
"Not Active"
>>> recorded_result("CC1(C)S[C@@H]2[C@H](NC(=O)[C@H](N)c3ccccc3)C(=O)N2[C@H]1C(=O)O [AMPICILLIN]")
"Not Active"
>>> recorded_result("CC[C@H]1CN2CCc3cc(OC)c(OC)cc3[C@@H]2C[C@@H]1C[C@H]1NCCc2cc(OC)c(OC)cc21 [EMETINE]")
"Not Active"
>>> recorded_result("CCN(CC)CC(=O)Nc1c(C)cccc1C [LIDOCAINE]")
"Not Active"
>>> recorded_result("CC(=O)[C@H]1[C@H](C#N)C[C@H]2[C@@H]3CC=C4C[C@@H](O)CC[C@]4(C)[C@H]3CC[C@@]21C [PREGNENOLONE CARBONITRILE]")
"Not Active"
>>> recorded_result("CCC(=O)O[C@]1(C(=O)CCl)[C@@H](C)C[C@H]2[C@@H]3CCC4=CC(=O)C=C[C@]4(C)[C@@]3(F)[C@@H](O)C[C@@]21C [CLOBETASOL PROPIONATE]")
"Not Active"

*Q* Identify IC50 associated with the compound COc1cc2nc(N3CCN(C(=O)C4CCCO4)CC3)nc(N)c2cc1OC (centres undefined) [TERAZOSIN]
*A* Not Active

*Q* Identify IC50 associated with the compound COC1=C(OC)C(=O)C(CCCCCCCCCCO)=C(C)C1=O [IDEBENONE]
*A* Not Active

*Q* Identify IC50 associated with the compound NC(=O)N1C(=O)/C(=C(\O)c2cccs2)c2cc(Cl)ccc21 [TENIDAP]
*A* Not Active

*Q* Identify IC50 associated with the compound CC(C)NNC(=O)c1ccncc1 [IPRONIAZID]
*A* Not Active

*Q* Identify IC50 associated with the compound CC(c1cc2ccccc2s1)N(O)C(N)=O (centres undefined) [ZILEUTON]
*A* Not Active

*Q* Identify IC50 associated with the compound CN[C@H]1CC[C@@H](c2ccc(Cl)c(Cl)c2)c2ccccc21 [SERTRALINE]
*A* Not Active

*Q* Identify IC50 associated with the compound CNC1(c2ccccc2Cl)CCCCC1=O (centres undefined) [KETAMINE]
*A* Not Active

*Q* Identify IC50 associated with the compound Brc1c(NC2=NCCN2)ccc2nccnc12 [BRIMONIDINE]
*A* Not Active

*Q* Identify IC50 associated with the compound CN(C)CC[C@@H](c1ccc(Cl)cc1)c1ccccn1 [DEXCHLORPHENIRAMINE]
*A* Not Active

*Q* Identify IC50 associated with the compound Cn1c(=O)c2c(ncn2CC(O)CO)n(C)c1=O (centres undefined) [DYPHYLLINE]
*A* Not Active

*Q* Identify IC50 associated with the compound O=C(O)CCNC(=O)c1ccccc1 [BETAMIPRON]
*A* Not Active

*Q* Identify IC50 associated with the compound CO[C@@H]1[C@@H](OC)[C@H](C)[C@@](O)(CC(=O)O)O[C@H]1[C@H](C)[C@H]1O[C@@]2(CC[C@@](C)([C@H]3CC[C@@](C)([C@@H]4O[C@@H]([C@H]5O[C@](C)(O)[C@H](C)C[C@@H]5C)C[C@@H]4O[C@@H]4C[C@H](OC)[C@@H](OC)[C@H](C)O4)O3)O2)C[C@H](O)[C@H]1C [MADURAMICIN ACID]
*A* Not Active

*Q* Identify IC50 associated with the compound Cc1c(C)c2c(c(C)c1O)CCC(C)(CN1CCN(c3cc(N4CCCC4)nc(N4CCCC4)n3)CC1)O2 (centres undefined)
*A* Not Active

*Q* Identify IC50 associated with the compound Nc1cc(N2CCCCC2)nc(N)[n+]1[O-] [MINOXIDIL]
*A* Not Active

* * *

- assay-system: Adenosine receptor A1 (Homo sapiens, UniProt P30542); also: in other assays of this panel Not Active means under 50% inhibition at 10 µM;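 also: radioligand binding assay at the adenosine A1 receptor, with DPCPX serving as the labelled ligand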
- Sequence (P30542 whole entry): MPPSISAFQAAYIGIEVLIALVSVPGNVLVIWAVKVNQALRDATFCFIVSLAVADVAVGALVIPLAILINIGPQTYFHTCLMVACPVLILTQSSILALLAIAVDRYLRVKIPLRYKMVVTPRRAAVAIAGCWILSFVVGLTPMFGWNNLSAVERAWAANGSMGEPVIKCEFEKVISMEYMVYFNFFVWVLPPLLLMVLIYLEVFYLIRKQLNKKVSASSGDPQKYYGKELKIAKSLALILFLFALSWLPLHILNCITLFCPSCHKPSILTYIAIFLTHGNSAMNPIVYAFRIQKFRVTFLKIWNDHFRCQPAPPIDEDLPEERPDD
- Format: cell membranes, CHO, Membrane
- settings: read-out: IC50
measured-metric: pIC50
// scale note: pIC50 = -log10(conc_M); give the bare number

*Q* Identify pIC50 associated with the molecule COC(=O)Nc1nc2ccc(C(=O)c3cccs3)cc2[nH]1
*A* 4.30

* * *

- assay-system: UniProt:P10635
- Sequence (P10635 whole entry): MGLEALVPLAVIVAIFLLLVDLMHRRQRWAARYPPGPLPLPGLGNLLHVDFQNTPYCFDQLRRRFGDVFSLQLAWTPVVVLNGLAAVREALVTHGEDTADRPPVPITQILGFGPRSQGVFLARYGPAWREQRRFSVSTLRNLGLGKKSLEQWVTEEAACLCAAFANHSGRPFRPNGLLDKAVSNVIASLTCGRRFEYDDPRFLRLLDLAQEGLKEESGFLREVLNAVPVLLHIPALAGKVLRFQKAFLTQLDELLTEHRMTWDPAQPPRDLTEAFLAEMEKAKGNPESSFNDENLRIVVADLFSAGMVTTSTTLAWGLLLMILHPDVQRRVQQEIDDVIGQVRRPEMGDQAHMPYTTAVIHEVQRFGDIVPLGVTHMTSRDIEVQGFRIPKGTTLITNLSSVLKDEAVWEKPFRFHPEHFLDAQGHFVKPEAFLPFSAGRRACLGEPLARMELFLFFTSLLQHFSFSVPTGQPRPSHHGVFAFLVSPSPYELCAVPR
- settings: bti-tn-5b1-4
measured-metric: Ki

>>> recorded_result("Cc1nnc2n1-c1ccc(Cl)cc1C(c1ccccc1)=NC2")
"Not Active"
>>> recorded_result("Cc1cccc(C)c1OCC(C)N (centres undefined)")
"Not Active"
>>> recorded_result("COC(=O)Nc1nc2ccc([S+]([O-])c3ccccc3)cc2[nH]1 (centres undefined)")
"Not Active"
>>> recorded_result("NNc1nncc2ccccc12 [HYDRALAZINE]")
"Not Active"

*Q* Identify Ki associated with the compound CC(C)NCC(O)c1ccc(NS(C)(=O)=O)cc1 (centres undefined)
*A* Not Active

*Q* Identify Ki associated with the compound NC(=O)N1C(=O)/C(=C(\O)c2cccs2)c2cc(Cl)ccc21
*A* Not Active

*Q* Identify Ki associated with the compound O=C/C=C/c1ccccc1
*A* Not Active

*Q* Identify Ki associated with the compound Nc1cc(N2CCCCC2)nc(N)[n+]1[O-]
*A* Not Active

*Q* Identify Ki associated with the compound COC(=O)CCc1ccc(OCC(O)CNC(C)C)cc1 (centres undefined)
*A* Not Active

*Q* Identify Ki associated with the compound CC[C@H]1CN2CCc3cc(OC)c(OC)cc3[C@@H]2C[C@@H]1C[C@H]1NCCc2cc(OC)c(OC)cc21
*A* Not Active

*Q* Identify Ki associated with the compound Cn1c(=O)c2nc[nH]c2n(C)c1=O.O
*A* Not Active

*Q* Identify Ki associated with the compound CCC(=O)O[C@]1(C(=O)CCl)[C@@H](C)C[C@H]2[C@@H]3CCC4=CC(=O)C=C[C@]4(C)[C@@]3(F)[C@@H](O)C[C@@]21C [CLOBETASOL PROPIONATE]
*A* Not Active

*Q* Identify Ki associated with the compound O=C1Nc2ccc(Cl)cc2C(c2ccccc2Cl)=NC1O (centres undefined)
*A* Not Active

*Q* Identify Ki associated with the compound CC(=O)[C@H]1[C@H](C#N)C[C@H]2[C@@H]3CC=C4C[C@@H](O)CC[C@]4(C)[C@H]3CC[C@@]21C
*A* Not Active

*Q* Identify Ki associated with the compound Cn1c(=O)c2[nH]cnc2n(C)c1=O.Cn1c(=O)c2[nH]cnc2n(C)c1=O.NCCN
*A* Not Active
